systemUnderTest: AGTR1 (Homo sapiens, UniProt P30556)
Construct: host or cells: Pathunter CHO-K1 AGTR1 β-arrestin cell line (CHO-K1)
Sequence (P30556 1-359): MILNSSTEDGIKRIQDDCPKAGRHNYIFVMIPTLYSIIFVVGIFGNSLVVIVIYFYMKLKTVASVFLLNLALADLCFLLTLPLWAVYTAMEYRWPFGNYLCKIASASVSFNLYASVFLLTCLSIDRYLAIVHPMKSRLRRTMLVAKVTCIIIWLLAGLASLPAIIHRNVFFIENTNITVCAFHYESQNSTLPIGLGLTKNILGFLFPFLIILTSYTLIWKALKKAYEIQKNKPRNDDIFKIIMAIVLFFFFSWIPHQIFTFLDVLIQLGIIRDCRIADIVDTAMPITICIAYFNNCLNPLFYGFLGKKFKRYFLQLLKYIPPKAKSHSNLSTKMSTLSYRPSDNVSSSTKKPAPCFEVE
procedureDetails: DiscoveRx IP1 accumulation assay (HTRF), agonist mode, Pathunter CHO-K1 AGTR1 β-arrestin cell line
Type: cell-based
Protocol: In one aspect of the invention, signaling bias of compounds was assessed by comparing the relative activity of compounds to activate both the β-arrestin and Gq signaling pathways. […] Gq activation can be assessed by measuring the accumulation of inositol phosphates (e.g. IP3, IP1) that are liberated following activation of phospholipase C by Gq (Thomsen, Frazer et al. 2005). […] IP1 accumulation was measured in both agonist and antagonist modes. […]
assayReadout: IP-1 Ymax (%)
I only need the number, in %, no unit after it.

Some compounds with recorded IP-1 Ymax (%):
Log: AGTR1 (Homo sapiens, UniProt P30556), compound `CCc1nc2c(C)cc(C)nc2n1Cc1ccc(-c2cc(-c3ccccc3OC(F)(F)F)ccc2-c2nn[nH]n2)cc1` , IP-1 Ymax (%) = 18.7

Log: AGTR1 (Homo sapiens, UniProt P30556), compound `CCc1nc2c(C)cc(C)nc2n1Cc1ccc(-c2cc(-c3ccccc3C)ccc2-c2nn[nH]n2)cc1` , IP-1 Ymax (%) = 13.1

Log: AGTR1 (Homo sapiens, UniProt P30556), compound `CCc1nc2c(C)cc(C)nc2n1Cc1ccc(-c2cc(-c3ccccc3O)ccc2C(=O)O)cc1` , IP-1 Ymax (%) = 12.0

Log: AGTR1 (Homo sapiens, UniProt P30556), compound `CCc1nc2c(C)cc(C)nc2n1Cc1ccc(-c2cc(-c3cccc(C)c3)ccc2C(=O)O)nn1` , IP-1 Ymax (%) = 11.4

Log: AGTR1 (Homo sapiens, UniProt P30556), compound `CCc1nc2c(C)cc(C)nc2n1Cc1ccc(-c2cc(-c3ccccc3)ccc2-c2noc(=S)[nH]2)cc1` , IP-1 Ymax (%) = 8.5

Continuing:
Log: AGTR1 (Homo sapiens, UniProt P30556), compound `CCc1nc2c(C)cc(C)nc2n1Cc1ccc(-c2cc(-c3cncn3C)ccc2-c2nn[nH]n2)cc1` , IP-1 Ymax (%) = 3.1

Log: AGTR1 (Homo sapiens, UniProt P30556), compound CCc1nc2c(C)cc(C)nc2n1Cc1ccc(-c2cc(N3CCC4(CCOC4)C3)ccc2-c2nn[nH]n2)cc1 (stereo not shown) , IP-1 Ymax (%) = 51.1

Ref: patent US12037324B2
